# Test system: SK-MEL-28
# EXPERIMENTAL_PROTOCOL: NCI tumour cell line growth inhibition, 48 h
Calls of active or inactive are those of the source. Rule as the data show it: active = GI50 up to about 1.1 µM and inactive = higher.
# maps each entry to its GI50
MEASUREMENT_KIND: GI50

{"MOLECULE": "O=C(Cn1c2ccc(Br)cc2c2nc3ccccc3nc21)NCc1ccccc1", "TEST_TARGET": "SK-MEL-28", "ENDPOINT_VALUE": "> 100 µM (inactive)"}
{"MOLECULE": "N#CC1=CNc2sccc2S1(=O)=O", "TEST_TARGET": "SK-MEL-28", "ENDPOINT_VALUE": "> 100 µM (inactive)"}
{"MOLECULE": "O=C(CC(=O)c1ccccc1)C(=O)Nc1ccc(Cl)cc1", "TEST_TARGET": "SK-MEL-28", "ENDPOINT_VALUE": "> 100 µM (inactive)"}
{"MOLECULE": "O=C1CN2C(c3ccccc3)=NN(c3ccc([N+](=O)[O-])cc3)C2(c2ccccc2)c2cc(Cl)ccc2N1CC1CC1 (stereo unspecified)", "TEST_TARGET": "SK-MEL-28", "ENDPOINT_VALUE": "> 100 µM (inactive)"}
{"MOLECULE": "CCCCCCCCCCCCc1ccsc1-c1ccc(-c2ccc(-c3sccc3CCCCCCCCCCCC)s2)s1", "TEST_TARGET": "SK-MEL-28", "ENDPOINT_VALUE": "> 100 µM (inactive)"}
{"MOLECULE": "O=C(CC(=O)N1N=C(n2ccc3ccccc32)CC1c1ccccc1)Nc1ccc(Cl)cc1 (stereo unspecified)", "TEST_TARGET": "SK-MEL-28", "ENDPOINT_VALUE": "> 100 µM (inactive)"}
{"MOLECULE": "CCC[C@H]1O[C@@H]2CC(=O)O[C@@H]2C2=C1C(=O)C=CC2=O", "TEST_TARGET": "SK-MEL-28", "ENDPOINT_VALUE": "17.2 µM (inactive)"}
{"MOLECULE": "CCOC(=O)c1cc2c(OCc3ccccc3)c(OC)cc3c2c(n1)N(c1ccc(OC)cc1)C(C)C3 (stereo unspecified)", "TEST_TARGET": "SK-MEL-28", "ENDPOINT_VALUE": "> 50 µM (inactive)"}
{"MOLECULE": "CC(C)CC(N)C(=O)OCN1C(=O)C2C3C=CC(C2C1=O)C1C2C(=O)N(COC(=O)C(N)CC(C)C)C(=O)C2C31 (stereo unspecified)", "TEST_TARGET": "SK-MEL-28", "ENDPOINT_VALUE": "> 100 µM (inactive)"}
{"MOLECULE": "Cc1ccc(S(=O)(=O)NC(=O)NC(CO)C(=O)O)cc1 (stereo unspecified)", "TEST_TARGET": "SK-MEL-28", "ENDPOINT_VALUE": "> 100 µM (inactive)"}
{"MOLECULE": "CC1=CC2=C(C(N)=O)C(=O)OC2(C)C(c2ccccc2)C1 (stereo unspecified)", "TEST_TARGET": "SK-MEL-28", "ENDPOINT_VALUE": "> 100 µM (inactive)"}
{"MOLECULE": "C=CCSSCC=C", "TEST_TARGET": "SK-MEL-28", "ENDPOINT_VALUE": "> 74.8 µM (inactive)"}
{"MOLECULE": "C=C1C(=O)OC2/C=C(\\C)C3OC3/C=C(/C(=O)OC)C(O)C(OC(=O)C3(C)OC3C)C12 (stereo unspecified)", "TEST_TARGET": "SK-MEL-28", "ENDPOINT_VALUE": "1.52 µM (inactive)"}
{"MOLECULE": "Nc1ccc2c(c1)N(C(=O)CCCC(=O)N1CC(CCl)c3ccc(N)cc31)CC2CCl (stereo unspecified)", "TEST_TARGET": "SK-MEL-28", "ENDPOINT_VALUE": "1.23 µM (inactive)"}
{"MOLECULE": "Cc1cccc(C)c1NC(=O)C(C#N)C1=C(Cl)C(=O)c2ccccc2C1=O (stereo unspecified)", "TEST_TARGET": "SK-MEL-28", "ENDPOINT_VALUE": "20.2 µM (inactive)"}
{"MOLECULE": "CC(C)=CCC[C@@H](C)C1=C(O)C(=O)C(C)=C(N[C@H](C)c2ccccc2)C1=O", "TEST_TARGET": "SK-MEL-28", "ENDPOINT_VALUE": "6.76 µM (inactive)"}
{"MOLECULE": "COC(=O)C1Cc2c(OC)ccc(OC)c2CC(C(=O)OC)C1=O (stereo unspecified)", "TEST_TARGET": "SK-MEL-28", "ENDPOINT_VALUE": "> 100 µM (inactive)"}
{"MOLECULE": "C=CCC(C(=O)O)c1ccccc1 (stereo unspecified)", "TEST_TARGET": "SK-MEL-28", "ENDPOINT_VALUE": "> 100 µM (inactive)"}
{"MOLECULE": "Cc1oc2c(c1C)S(=O)(=O)C(C#N)=CN2", "TEST_TARGET": "SK-MEL-28", "ENDPOINT_VALUE": "> 100 µM (inactive)"}
{"MOLECULE": "COc1cc2c(c(OC)c1OC)-c1cccc(=O)cc1C(NC(C)=O)CC2 (stereo unspecified)", "TEST_TARGET": "SK-MEL-28", "ENDPOINT_VALUE": "2.15 µM (inactive)"}
{"MOLECULE": "Cc1cc2nc(-c3cc(C(C)(C)C)c(O)c(C(C)(C)C)c3)[nH]c2cc1C", "TEST_TARGET": "SK-MEL-28", "ENDPOINT_VALUE": "> 100 µM (inactive)"}
